Assay: log P by HPLC on a reversed-phase column (C 18), EEC Directive 79/831 Annex V.A8
Assay type: physicochemical
Details: HPLC, reversed-phase column (C 18), 40° C.; 0.1% aqueous formic acid and acetonitrile, linear gradient 10% to 90% acetonitrile
RECORDED METRIC: logP

// worked examples, logP included
>>> print(df.to_string())
                                test_smiles  result
0  Cc1ccc(C2(C)CC2)c(CN(C(=O)c2cn(C)nc2C(F)F)C2CC2)c1    3.74
1  CCC1(c2ccc(Cl)cc2CN(C(=O)c2c(OC(F)F)nn(C)c2C(F)(F)F)C2CC2)CC1    5.36

// switching to the query compound
[in] Given the compound `Cc1ccc(C2(C)CC2)c(CN(C(=O)c2c(C(F)(F)F)nn(C)c2F)C2CC2)c1` , what is its reported logP?
[out] 4.61

These entries and their values trace back to patent US10071967B2.
